- assay-remarks: PK analysis: Cmax and AUC from PK models fitted to serum and ISF concentrations
- Format: in vivo, Male Sprague Dawley rats
- conditions-used: male, Sprague Dawley, rat, in vivo, iv, 15 mg/kg, VAN, Rat # 2, dose 15 mg/kg i.v.; read-out: Serum Cmax
metric-name: Cmax (µM)
Give your result in µM as a bare value.

Field request: Cmax | item: CN[C@H](CC(C)C)C(=O)N[C@H]1C(=O)N[C@@H](CC(N)=O)C(=O)N[C@H]2C(=O)N[C@H]3C(=O)N[C@H](C(=O)N[C@H](C(=O)O)c4cc(O)cc(O)c4-c4cc3ccc4O)[C@H](O)c3ccc(c(Cl)c3)Oc3cc2cc(c3O[C@@H]2O[C@H](CO)[C@@H](O)[C@H](O)[C@H]2O[C@H]2C[C@](C)(N)[C@H](O)[C@H](C)O2)Oc2ccc(cc2Cl)[C@H]1O 99.9

---

- assay-remarks: PK analysis: Cmax and AUC from PK models fitted to serum and ISF concentrations
- Type: in vivo, Male Sprague Dawley rats
- conditions-used: male, Sprague Dawley, rat, serum, iv, 50 mg/kg, GEN, Rat # 4, dose 50 mg/kg i.v.; read-out: Serum Cmax
metric-name: Cmax (µM)
Give your result in µM as a bare value.

Field request: Cmax | item: CNC(C)C1CCC(N)C(OC2C(N)CC(N)C(OC3OCC(C)(O)C(NC)C3O)C2O)O1 (stereo not shown) [GEN, gentamicin] 268

---

- assay-remarks: PK analysis: Cmax and AUC from PK models fitted to serum and ISF concentrations
- Type: in vivo, Male Sprague Dawley rats
- conditions-used: male, Sprague Dawley, rat, in vivo, iv, 45 mg/kg, VAN, Rat # 1, dose 45 mg/kg i.v.; read-out: ISF AUC (converted)
metric-name: AUC (µM·h)
Give your result in µM·h as a bare value.

Field request: AUC | item: CN[C@H](CC(C)C)C(=O)N[C@H]1C(=O)N[C@@H](CC(N)=O)C(=O)N[C@H]2C(=O)N[C@H]3C(=O)N[C@H](C(=O)N[C@H](C(=O)O)c4cc(O)cc(O)c4-c4cc3ccc4O)[C@H](O)c3ccc(c(Cl)c3)Oc3cc2cc(c3O[C@@H]2O[C@H](CO)[C@@H](O)[C@H](O)[C@H]2O[C@H]2C[C@](C)(N)[C@H](O)[C@H](C)O2)Oc2ccc(cc2Cl)[C@H]1O 139

---

- assay-remarks: PK analysis: Cmax and AUC from PK models fitted to serum and ISF concentrations
- Assay type: in vivo, Male Sprague Dawley rats
- conditions-used: male, Sprague Dawley, rat, serum, iv, 100 mg/kg, GEN, Rat # 1, dose 100 mg/kg i.v.; read-out: Serum Cmax
- Procedure: The estimation of PK parameters, such as the area under the time‐concentration level curve (AUC) and the peak concentrations (Cmax) was performed using two PK models describing the observed patterns of serum and ISF concentrations (Figure S13, Supporting Information) and the Spearman correlation test was used to assess the correlation between PK parameters in serum and ISF.^[ [53] ^] […]
metric-name: Cmax (µM)
Give your result in µM as a bare value.

Field request: Cmax | item: CNC(C)C1CCC(N)C(OC2C(N)CC(N)C(OC3OCC(C)(O)C(NC)C3O)C2O)O1 (stereo not shown) 1870

---

- assay-remarks: PK analysis: Cmax and AUC from PK models fitted to serum and ISF concentrations
- Assay type: in vivo, Male Sprague Dawley rats
- conditions-used: male, Sprague Dawley, rat, in vivo, iv, 15 mg/kg, VAN, Rat # 2, dose 15 mg/kg i.v.; read-out: ISF AUC (converted)
metric-name: AUC (µM·h)
Give your result in µM·h as a bare value.

Field request: AUC | item: CN[C@H](CC(C)C)C(=O)N[C@H]1C(=O)N[C@@H](CC(N)=O)C(=O)N[C@H]2C(=O)N[C@H]3C(=O)N[C@H](C(=O)N[C@H](C(=O)O)c4cc(O)cc(O)c4-c4cc3ccc4O)[C@H](O)c3ccc(c(Cl)c3)Oc3cc2cc(c3O[C@@H]2O[C@H](CO)[C@@H](O)[C@H](O)[C@H]2O[C@H]2C[C@](C)(N)[C@H](O)[C@H](C)O2)Oc2ccc(cc2Cl)[C@H]1O 8.72

---

- assay-remarks: PK analysis: Cmax and AUC from PK models fitted to serum and ISF concentrations
- Type: in vivo, Male Sprague Dawley rats
- conditions-used: male, Sprague Dawley, rat, interstitial fluid (ISF), iv, 100 mg/kg, GEN, Rat # 2, dose 100 mg/kg i.v.; read-out: ISF AUC (converted)
metric-name: AUC (µM·h)
Give your result in µM·h as a bare value.

Field request: AUC | item: CNC(C)C1CCC(N)C(OC2C(N)CC(N)C(OC3OCC(C)(O)C(NC)C3O)C2O)O1 (stereo not shown) 827

---

- assay-remarks: PK analysis: Cmax and AUC from PK models fitted to serum and ISF concentrations
- Format: in vivo, Male Sprague Dawley rats
- conditions-used: male, Sprague Dawley, rat, serum, iv, 100 mg/kg, GEN, Rat # 2, dose 100 mg/kg i.v.; read-out: Serum Cmax
metric-name: Cmax

Field request: Cmax | item: CNC(C)C1CCC(N)C(OC2C(N)CC(N)C(OC3OCC(C)(O)C(NC)C3O)C2O)O1 (stereo not shown) [GEN, gentamicin] 1320 µM

---

- assay-remarks: PK analysis: Cmax and AUC from PK models fitted to serum and ISF concentrations
- Type: in vivo, Male Sprague Dawley rats
- conditions-used: male, Sprague Dawley, rat, serum, iv, 100 mg/kg, GEN, Rat # 2, dose 100 mg/kg i.v.; read-out: Serum AUC (converted)
metric-name: AUC
Remember to follow the number with its unit.

Field request: AUC | item: CNC(C)C1CCC(N)C(OC2C(N)CC(N)C(OC3OCC(C)(O)C(NC)C3O)C2O)O1 (stereo not shown) 1120 µM·h

---

- assay-remarks: PK analysis: Cmax and AUC from PK models fitted to serum and ISF concentrations
- Format: in vivo, Male Sprague Dawley rats
- conditions-used: male, Sprague Dawley, rat, interstitial fluid (ISF), iv, 100 mg/kg, GEN, Rat # 1, dose 100 mg/kg i.v.; read-out: ISF Cmax
metric-name: Cmax (µM)
Give your result in µM as a bare value.

Field request: Cmax | item: CNC(C)C1CCC(N)C(OC2C(N)CC(N)C(OC3OCC(C)(O)C(NC)C3O)C2O)O1 (stereo not shown) [GEN, gentamicin] 279

---

- assay-remarks: PK analysis: Cmax and AUC from PK models fitted to serum and ISF concentrations
- Type: in vivo, Male Sprague Dawley rats
- conditions-used: male, Sprague Dawley, rat, ISF, iv, 100 mg/kg, GEN, Rat # 6, dose 100 mg/kg i.v.; read-out: ISF AUC (converted)
metric-name: AUC (µM·h)
Give your result in µM·h as a bare value.

Field request: AUC | item: CNC(C)C1CCC(N)C(OC2C(N)CC(N)C(OC3OCC(C)(O)C(NC)C3O)C2O)O1 (stereo not shown) 3490

---

- assay-remarks: PK analysis: Cmax and AUC from PK models fitted to serum and ISF concentrations
- Type: in vivo, Male Sprague Dawley rats
- conditions-used: male, Sprague Dawley, rat, in vivo, iv, 15 mg/kg, VAN, Rat # 1, dose 15 mg/kg i.v.; read-out: Serum Cmax
metric-name: Cmax (µM)
Give your result in µM as a bare value.

Field request: Cmax | item: CN[C@H](CC(C)C)C(=O)N[C@H]1C(=O)N[C@@H](CC(N)=O)C(=O)N[C@H]2C(=O)N[C@H]3C(=O)N[C@H](C(=O)N[C@H](C(=O)O)c4cc(O)cc(O)c4-c4cc3ccc4O)[C@H](O)c3ccc(c(Cl)c3)Oc3cc2cc(c3O[C@@H]2O[C@H](CO)[C@@H](O)[C@H](O)[C@H]2O[C@H]2C[C@](C)(N)[C@H](O)[C@H](C)O2)Oc2ccc(cc2Cl)[C@H]1O [VAN, vancomycin] 117

---

- assay-remarks: PK analysis: Cmax and AUC from PK models fitted to serum and ISF concentrations
- Assay type: in vivo, Male Sprague Dawley rats
- conditions-used: male, Sprague Dawley, rat, interstitial fluid (ISF), iv, 50 mg/kg, GEN, Rat # 2, dose 50 mg/kg i.v.; read-out: ISF AUC (converted)
metric-name: AUC (µM·h)
Give your result in µM·h as a bare value.

Field request: AUC | item: CNC(C)C1CCC(N)C(OC2C(N)CC(N)C(OC3OCC(C)(O)C(NC)C3O)C2O)O1 (stereo not shown) [GEN, gentamicin] 509

---

- assay-remarks: PK analysis: Cmax and AUC from PK models fitted to serum and ISF concentrations
- Type: in vivo, Male Sprague Dawley rats
- conditions-used: male, Sprague Dawley, rat, ISF, iv, 50 mg/kg, GEN, Rat # 4, dose 50 mg/kg i.v.; read-out: ISF Cmax
metric-name: Cmax (µM)
Give your result in µM as a bare value.

Field request: Cmax | item: CNC(C)C1CCC(N)C(OC2C(N)CC(N)C(OC3OCC(C)(O)C(NC)C3O)C2O)O1 (stereo not shown) [GEN, gentamicin] 221
